System: SR leukemia
Test: NCI tumour cell line growth inhibition, 48 h
Entries and their measured TGI follow.
quantity measured: TGI

O=c1[nH]c2c(c(=O)[nH]1)SSC2: 2.09 µM
FC1=C2CCCCCC2SC1(F)F (centres undefined): 53.6 µM
O=S(=O)(NCCNc1nccc(-c2c(-c3ccc(F)cc3)nc3sccn23)n1)c1ccccc1: > 100 µM
N#Cc1sc2c(c1O)c(=O)n(-c1ccccc1)c(=S)n2-c1ccccc1: > 100 µM
CN(C)C(=S)/N=c1\ss/c(=N\S(=O)(=O)c2ccccc2)n1N(C)C: > 100 µM
CN(C)CCN1C(=O)c2cccc3cccc(c23)C1=O: 18.3 µM
C[C@H]1C(=O)CC[C@]2(C)CCC(C(C)(C)O)CC12O (some centres undefined): > 100 µM
COc1ccc(Nc2cc(C)nc(N3CCN(c4ccnc5cc(Cl)ccc45)CC3)n2)cc1: > 100 µM
CC(=O)c1sc(=N)n(-c2c(C)cccc2C)c1C: > 100 µM
CN(C)CC1CN=C(NC(=O)Nc2ccccc2)O1 (centres undefined): > 100 µM
O=C1c2ccccc2C(=O)c2oc(Br)cc21: 5.78 µM
COc1ccc(CCNC(=O)[C@H]2CCCC[C@@H]2CCO)cc1OC: > 100 µM
COc1cc(C(=O)Oc2c(C#N)sc3c2c(=O)n(-c2ccccc2)c(=S)n3-c2ccccc2)cc(OC)c1OC: > 100 µM
O=C1c2nc3n(c2C(=O)c2c1nc1n2CCC1)CCC3: > 40.6 µM
CC1=NN=C(N)NC1=CC(Sc1ccc(Cl)cc1)c1c(O)ccc2ccccc12 (centres undefined): > 100 µM
O=C(CC1C(=O)Nc2ccccc2S1=O)Nc1ccc(Cl)cc1 (centres undefined): > 100 µM
CC1=NN(C(=O)CC(=O)Nc2cccc(Cl)c2)C(=O)C1N=Nc1ccc(C(=O)O)cc1 (centres undefined): > 100 µM
COCCOC(=O)C(C)=[N+]=[N-]: > 100 µM
CCOP(=O)(OCC)/C(C#N)=C/c1c[nH]c2ccccc12: > 100 µM
C=C(Cl)Cc1c(O)c2c(c(O)c1CC(=C)Cl)C(=O)c1ccccc1C2=O: > 100 µM
COC(=O)C1=C(c2ccc3c(c2)OCO3)OC(c2cc(OC)c(OC)c(OC)c2)C1 (centres undefined): > 100 µM
Cc1ccc(S(=O)(=O)NNC2Oc3cc4c(cc3C(c3ccccc3O)C2C)OCO4)cc1 (centres undefined): 33.4 µM
O=C1CC(c2ccc(Cl)cc2)Oc2ccccc21 (centres undefined): 28 µM
O=C(NS(=O)(=O)c1ccccc1)C(Cc1ccccc1)C(Cc1ccccc1)C(=O)NS(=O)(=O)c1ccccc1 (centres undefined): > 100 µM
S=c1[nH]nc(NNc2ccccc2)n1Nc1ccccc1: > 91.1 µM
C/C=C/[C@H](O[Si](C)(C)C(C)(C)C)[C@@H](O)/C=C/C(=O)OCC: 44.1 µM
O=c1oc2ccc([N+](=O)[O-])cc2c(Nc2ccc3c(c2)S(=O)(=O)c2ccccc2O3)c1[N+](=O)[O-]: > 100 µM
CN(C)Cc1cc(C(C)(C)C)cc(C2CCCCC2)c1O: 25.6 µM
NCCSCCc1ccccc1: > 100 µM
O=C(CSC1=NNC2(C(=O)N1)c1ccccc1-c1ccccc12)NC(=S)Nc1ccccc1: > 10 µM
CCc1nc(N)nc(N)c1-c1ccc(Cl)c(N=CN(C)C)c1: > 83.4 µM
Cc1cccc2c(N)c3ccccc3nc12: 13.3 µM
COc1cc2oc(=O)ccc2cc1CC=C(C)C: 57.4 µM
Cc1cc(-c2nc3cccc(F)c3s2)ccc1N: > 74.8 µM
CC(C)C(NCc1c(O)ccc2c(-c3ccccc3)cc(=O)oc12)C(=O)O (centres undefined): > 100 µM
C=CCN1CN(c2ccccc2)C2(CCN(CCCC3(c4ccc(F)cc4)OCCO3)CC2)C1=O: 48.7 µM
O=C(Nc1ccn(CCI)c(=O)n1)c1ccccc1: > 100 µM
CC(C)(C)C1CCC2c3c([nH]c4ccccc34)C3C(=O)N(c4ccc5c(c4)C(=O)c4ccccc4C5=O)C(=O)C3C2C1 (centres undefined): > 100 µM
[Cl][Cd][Cl]: 500 µM
O=C1C=CC(O)C2C1CC13SSC4(CC5C(=O)C=CC(O)C5N4C1=O)C(=O)N23 (centres undefined): 0.0727 µM
N#CCCN(CCN(CCC#N)C(=O)Nc1ccccc1)C(=O)Nc1ccccc1: > 100 µM
COc1ccc(-c2nn(-c3cccc(NC(=O)c4ccc(N5CCOCC5)c(C(F)(F)F)c4)c3)cc2-c2ccncc2)cc1Cl: > 50 µM
Cc1ccc(-c2nc(N3CCCNCC3)c3oc(-c4ccc(C)cc4)nc3n2)cc1: 0.575 µM
CC(C)CCN[C@@H]1CCc2cc(O)c(N3CC(=O)NS3(=O)=O)c(F)c2C1: > 100 µM
